# Test method notes: Stability of peptide in rat plasma (RP-HPLC)
# Format: in vitro ADME
# Test context: input control without serum treatment; Input (NT, no-serum treatment); read-out: Recovery rate (%)
Starred links: 1 amine or outer side, 2 acyl side, 3 side chain; linkers in the order of their positions; H or OH if unused. Positions of bridges follow the written chain, without caps; N, C: chain ends. Non-standard residues stand in square brackets, D forms with d. Residues, ends and D or L forms follow the SMILES beside them. Phe(4-F) = N[C@@H](Cc1ccc(F)cc1)C(=O)O; X1 = CCCCCCC[C@H](N[*:1])C(=O)[*:2]; Nle = CCCC[C@H](N)C(=O)O; X2 = C(C[*:1])C[*:2]; βAla = NCCC(=O)O
Quantity: recovery (%)
The reply should be a number in %, with the unit left off.

In plain terms, CCCCCCC[C@@H]1NC(=O)[C@@H]2CSCCCSC[C@@H](NC(=O)[C@H](Cc3c[nH]c4ccccc34)NC(=O)[C@@H]3CCCN3C(=O)[C@H](CC(=O)O)NC(=O)[C@H](Cc3ccc(F)cc3)NC(=O)[C@H](CO)NC1=O)C(=O)NCCC(=O)N1CCC[C@H]1C(=O)N[C@@H](CCCC)C(=O)N2 [KS-58] (cyclo([βAla]P[Nle]C[X1]S[Phe(4-F)]DPW[dC]); linker 4-11 via X2) has a documented recovery of 100

----------
# Test method notes: Pharmacokinetics study in mice, intravenous injection
# Assay type: in vivo
# Test context: male, Slc:ICR, mouse, plasma, 20 mg/kg intravenous injection, n = 3, read-out: blood circulation half-life (t1/2) in the elimination phase
Starred links: 1 amine or outer side, 2 acyl side, 3 side chain; linkers in the order of their positions; H or OH if unused. Positions of bridges follow the written chain, without caps; N, C: chain ends. Non-standard residues stand in square brackets, D forms with d. Residues, ends and D or L forms follow the SMILES beside them. Phe(4-F) = N[C@@H](Cc1ccc(F)cc1)C(=O)O; X1 = CCCCCCC[C@H](N[*:1])C(=O)[*:2]; Nle = CCCC[C@H](N)C(=O)O; X2 = C(C[*:1])C[*:2]; βAla = NCCC(=O)O
Quantity: half-life (h)
The reply should be a number in h, with the unit left off.

In plain terms, CCCCCCC[C@@H]1NC(=O)[C@@H]2CSCCCSC[C@@H](NC(=O)[C@H](Cc3c[nH]c4ccccc34)NC(=O)[C@@H]3CCCN3C(=O)[C@H](CC(=O)O)NC(=O)[C@H](Cc3ccc(F)cc3)NC(=O)[C@H](CO)NC1=O)C(=O)NCCC(=O)N1CCC[C@H]1C(=O)N[C@@H](CCCC)C(=O)N2 [KS-58] (cyclo([βAla]P[Nle]C[X1]S[Phe(4-F)]DPW[dC]); linker 4-11 via X2) has a documented half-life of 1

----------
# Test method notes: Stability of peptide in rat plasma (RP-HPLC)
# Type: in vitro ADME
# Test context: rat plasma, incubation time 0 h; read-out: Recovery rate (%)
Starred links: 1 amine or outer side, 2 acyl side, 3 side chain; linkers in the order of their positions; H or OH if unused. Positions of bridges follow the written chain, without caps; N, C: chain ends. Non-standard residues stand in square brackets, D forms with d. Residues, ends and D or L forms follow the SMILES beside them. Phe(4-F) = N[C@@H](Cc1ccc(F)cc1)C(=O)O; X1 = CCCCCCC[C@H](N[*:1])C(=O)[*:2]; Nle = CCCC[C@H](N)C(=O)O; X2 = C(C[*:1])C[*:2]; βAla = NCCC(=O)O
Quantity: recovery at 0 h, 0.476 mM (%)
The reply should be a number in %, with the unit left off.

In plain terms, CCCCCCC[C@@H]1NC(=O)[C@@H]2CSCCCSC[C@@H](NC(=O)[C@H](Cc3c[nH]c4ccccc34)NC(=O)[C@@H]3CCCN3C(=O)[C@H](CC(=O)O)NC(=O)[C@H](Cc3ccc(F)cc3)NC(=O)[C@H](CO)NC1=O)C(=O)NCCC(=O)N1CCC[C@H]1C(=O)N[C@@H](CCCC)C(=O)N2 [KS-58] (cyclo([βAla]P[Nle]C[X1]S[Phe(4-F)]DPW[dC]); linker 4-11 via X2) has a documented recovery at 0 h, 0.476 mM of 96.3

----------
# Test method notes: Stability of peptide in rat plasma (RP-HPLC)
# Type: in vitro ADME
# Test context: rat plasma, 37 °C, incubation time 24 h; read-out: Recovery rate (%)
Starred links: 1 amine or outer side, 2 acyl side, 3 side chain; linkers in the order of their positions; H or OH if unused. Positions of bridges follow the written chain, without caps; N, C: chain ends. Non-standard residues stand in square brackets, D forms with d. Residues, ends and D or L forms follow the SMILES beside them. Phe(4-F) = N[C@@H](Cc1ccc(F)cc1)C(=O)O; X1 = CCCCCCC[C@H](N[*:1])C(=O)[*:2]; Nle = CCCC[C@H](N)C(=O)O; X2 = C(C[*:1])C[*:2]; βAla = NCCC(=O)O
Quantity: recovery at 24 h, 0.476 mM (%)
The reply should be a number in %, with the unit left off.

In plain terms, CCCCCCC[C@@H]1NC(=O)[C@@H]2CSCCCSC[C@@H](NC(=O)[C@H](Cc3c[nH]c4ccccc34)NC(=O)[C@@H]3CCCN3C(=O)[C@H](CC(=O)O)NC(=O)[C@H](Cc3ccc(F)cc3)NC(=O)[C@H](CO)NC1=O)C(=O)NCCC(=O)N1CCC[C@H]1C(=O)N[C@@H](CCCC)C(=O)N2 [KS-58] (cyclo([βAla]P[Nle]C[X1]S[Phe(4-F)]DPW[dC]); linker 4-11 via X2) has a documented recovery at 24 h, 0.476 mM of 95
